assay: Dissociation constant, pKa of the compound; format: physicochemical
recorded_metric: pKa

compound	endpoint_value
COc1ccc(F)c(-c2cccc(C3(c4ccncc4)N=C(N)N4CC(F)(F)CN=C43)c2)c1 (stereo unspecified)	5.9
COc1cccc(-c2cccc([C@]3(c4ccncc4)N=C(N)N4CC(F)(F)CN=C43)c2)c1F	5.3
NC1=NC(c2ccncc2)(c2cccc(-c3cncnc3)c2)C2=NCCCN12 (stereo unspecified)	7.6
NC1=NC(c2ccc(OC(F)F)cc2)(c2cccc(OCCCF)c2)C2=NCC(F)(F)CN12 (stereo unspecified)	6.5
NC1=NC(c2ccc(OC(F)F)cc2)(c2cccc(-c3cncnc3)c2)C2=NCC(F)(F)CN12 (stereo unspecified)	6.1
COc1ccc(C2(c3cccc(-c4cncnc4)c3)N=C(N)N3CC(F)(F)CN=C32)cc1 (stereo unspecified)	6.8

Hey, just so you know, these numbers are from ChEMBL document CHEMBL1955861.
